This collection of values is drawn from PubChem BioAssay (NCI).

System: 786-0 renal
Experiment: NCI tumour cell line growth inhibition, 48 h
Tick YES if TGI is 30 µM or greater. Tick NO if TGI is less than 30 µM.

1) COC(C(O)CO)C(O)C(O)C(=O)NNc1ccccc1 (configuration not stated)
YES

Request: Test whether the molecule CCC[CH2][Sn]1([CH2]CCC)[O]CC(CN2CCCC2)[O]1 (configuration not stated) records TGI of 30 µM or higher.
Response: NO

Request: # check: TGI of CC(C)=CCC/C(C)=C/C=C/C(C)=C/C=C/C(C)=C/C=C/C=C(C)/C=C/C=C(C)/C=C/[C@H]1C(C(C)(C)O)CC[C@]1(C)O (some centres not stated) is greater than or equal to 30 µM
Response: YES
